Can you tell me TGI for the items I'm about to list?
- Tested on: HT-29
- Test Details: Growth inhibition of human HT-29 cells incubated for 48 hrs by sulforhodamine B assay
- Type: functional
- Assay Conditions: HT-29, 48 h, read-out: pTGI (converted)

Reference set, count: 3
[[record]]
structure_smiles = "C/C(=C\\C(=O)O[C@H]1[C@@H]2[C@H](C)CC[C@H]2[C@]2(C)O[C@@]1(C(C)C)C[C@H]2NC(=O)CO)c1ccccc1"
reported_result = "> 100 µM"

[[record]]
structure_smiles = "CC(C)[C@@]12C[C@@H](NC(=O)CO)[C@@](C)(O1)[C@@H]1CC[C@@H](C)[C@H]1[C@@H]2OC(=O)/C=C/c1ccccc1"
reported_result = "> 50.1 µM"

[[record]]
structure_smiles = "CC(C)[C@@]12C[C@@H](NC(=O)CO)[C@@](C)(O1)[C@@H]1CC[C@@H](C)[C@H]1[C@@H]2OC(=O)c1ccc2ccccc2c1"
reported_result = "32.4 µM"


Look at this molecule and give its reported TGI. CC(C)[C@@]12C[C@@H](NC(=O)CO)[C@@](C)(O1)[C@@H]1CC[C@@H](C)[C@H]1[C@@H]2OC(=O)/C=C/C1CCCCC1 > 44.7 µM

====

- Test system: KM12
- Test Details: Growth inhibition of human KM12 cells incubated for 48 hrs by sulforhodamine B assay
- Type: functional
- Assay Conditions: KM12, 48 h, read-out: pTGI (converted)
Exercise: for every item that follows, state its recorded TGI.

Give me TGI for each of these compounds, listed below.
1. CC(C)[C@@]12C[C@@H](NC(=O)CO)[C@@](C)(O1)[C@@H]1CC[C@@H](C)[C@H]1[C@@H]2OC(=O)/C=C/C1CCCCC1
2. C/C(=C\C(=O)O[C@H]1[C@@H]2[C@H](C)CC[C@H]2[C@]2(C)O[C@@]1(C(C)C)C[C@H]2NC(=O)CO)c1ccccc1
3. CC(C)[C@@]12C[C@@H](NC(=O)CO)[C@@](C)(O1)[C@@H]1CC[C@@H](C)[C@H]1[C@@H]2OC(=O)/C=C/c1ccccc1
4. CC(C)[C@@]12C[C@@H](NC(=O)CO)[C@@](C)(O1)[C@@H]1CC[C@@H](C)[C@H]1[C@@H]2OC(=O)c1ccc2ccccc2c1

["> 44.7 µM", "> 100 µM", "> 50.1 µM", "32.4 µM"]

====

Exercise: state measured GI50 for each of the compounds provided.
- Test Details: Growth inhibition of human OVCAR5 cells incubated for 48 hrs by sulforhodamine B assay
- Format: functional
- Assay Conditions: OVCAR-5, 48 h

[[record]]
structure_smiles = "C/C(=C\\C(=O)O[C@H]1[C@@H]2[C@H](C)CC[C@H]2[C@]2(C)O[C@@]1(C(C)C)C[C@H]2NC(=O)CO)c1ccccc1"
reported_result = "70.8 µM"

[[record]]
structure_smiles = "CC(C)[C@@]12C[C@@H](NC(=O)CO)[C@@](C)(O1)[C@@H]1CC[C@@H](C)[C@H]1[C@@H]2OC(=O)/C=C/c1ccccc1"
reported_result = "23.4 µM"

[[record]]
structure_smiles = "CC(C)[C@@]12C[C@@H](NC(=O)CO)[C@@](C)(O1)[C@@H]1CC[C@@H](C)[C@H]1[C@@H]2OC(=O)c1ccc2ccccc2c1"
reported_result = "15.5 µM"


# ---- query compound ----
Fill in the blank: the reported GI50 of CC(C)[C@@]12C[C@@H](NC(=O)CO)[C@@](C)(O1)[C@@H]1CC[C@@H](C)[C@H]1[C@@H]2OC(=O)/C=C/C1CCCCC1 is ____. > 44.7 µM
